# systemTested: UniProt:P41594
# procedureDetails: Positive allosteric modulation of human mGlu5 expressed in HEK293 cells assessed as calcium mobilization
# Format: functional, cell-based
# appliedConditions: read-out: EC50
Catalogue of EC50 values
The figure you give is taken to be in nM; do not add the unit.

{"lineNotation": "O=C(c1ccc(Cl)cc1)N1CCCn2nc(COc3ccccc3)cc21", "systemTested": "UniProt:P41594", "result": 390}
{"lineNotation": "CC(=O)N1CCCc2nc(COc3ccccc3)sc21", "systemTested": "UniProt:P41594", "result": 888}
{"lineNotation": "O=C(c1cccc(F)c1)N1CCCn2nc(COc3ccccc3)cc21", "systemTested": "UniProt:P41594", "result": 591}

Form field: reported EC50 of "CC(=O)N1CCCn2nc(COc3cc(F)cc(F)c3)cc21"
1270

Moving on to "O=C(Cc1ccccc1)N1CCCn2nc(COc3ccccc3)cc21"
378

Moving on to "CC(=O)N1CCCc2nc(COc3ccccc3)cn21"
780

Moving on to "O=C(c1ccccc1F)N1CCCn2nc(COc3ccccc3)cc21"
1130

Moving on to "O=C(c1ccc(F)cc1)N1CCCn2nc(COc3ccccc3)cc21"
596

Moving on to "CC(=O)N1CCCn2nc(COc3cccc(F)c3)cc21"
266

----------
Catalogue of pEC50 values
# systemTested: Metabotropic glutamate receptor 5 (Homo sapiens, UniProt P41594)
# Sequence (P41594 whole entry): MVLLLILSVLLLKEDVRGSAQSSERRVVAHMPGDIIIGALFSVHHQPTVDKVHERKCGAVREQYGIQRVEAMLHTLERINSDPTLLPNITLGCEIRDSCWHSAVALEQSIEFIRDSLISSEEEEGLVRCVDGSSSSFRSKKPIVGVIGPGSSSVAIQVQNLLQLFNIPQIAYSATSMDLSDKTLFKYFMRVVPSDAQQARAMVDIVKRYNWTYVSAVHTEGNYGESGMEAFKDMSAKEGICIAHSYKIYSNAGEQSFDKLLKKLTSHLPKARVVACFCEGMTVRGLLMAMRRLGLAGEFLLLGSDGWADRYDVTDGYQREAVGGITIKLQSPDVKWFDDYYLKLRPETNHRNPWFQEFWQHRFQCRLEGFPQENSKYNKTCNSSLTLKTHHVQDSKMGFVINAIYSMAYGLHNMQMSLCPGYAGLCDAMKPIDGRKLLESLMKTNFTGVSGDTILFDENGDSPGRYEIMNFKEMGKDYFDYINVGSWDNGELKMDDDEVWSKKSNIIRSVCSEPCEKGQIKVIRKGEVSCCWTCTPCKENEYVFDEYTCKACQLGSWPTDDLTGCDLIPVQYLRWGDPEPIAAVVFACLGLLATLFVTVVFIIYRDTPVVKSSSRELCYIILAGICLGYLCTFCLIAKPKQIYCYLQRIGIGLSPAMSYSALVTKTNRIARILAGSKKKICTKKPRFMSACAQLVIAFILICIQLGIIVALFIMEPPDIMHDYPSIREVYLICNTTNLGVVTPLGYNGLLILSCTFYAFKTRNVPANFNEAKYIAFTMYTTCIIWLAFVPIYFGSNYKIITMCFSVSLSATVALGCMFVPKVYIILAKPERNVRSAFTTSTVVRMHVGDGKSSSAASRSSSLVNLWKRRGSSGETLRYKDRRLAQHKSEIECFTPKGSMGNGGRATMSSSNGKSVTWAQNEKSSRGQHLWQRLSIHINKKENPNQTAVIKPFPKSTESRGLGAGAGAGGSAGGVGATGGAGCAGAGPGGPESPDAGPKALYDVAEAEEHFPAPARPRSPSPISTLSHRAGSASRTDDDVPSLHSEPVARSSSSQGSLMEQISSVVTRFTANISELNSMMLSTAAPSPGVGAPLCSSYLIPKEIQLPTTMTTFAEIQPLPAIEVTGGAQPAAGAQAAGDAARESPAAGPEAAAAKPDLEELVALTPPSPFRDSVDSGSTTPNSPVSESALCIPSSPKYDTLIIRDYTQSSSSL
# procedureDetails: Positive allosteric modulation of human mGlu5 expressed in HEK293 cells assessed as calcium mobilization
# Format: functional, cell-based
# appliedConditions: read-out: EC50
# pEC50: negative log10 of molar concentration; output just the value

These solved cases illustrate the format of a correct answer.
{"lineNotation": "O=C(C1CCCC1)N1CCCn2nc(COc3ccccc3)cc21", "pEC50": 5.76}
{"lineNotation": "CC(C)(C)C(=O)N1CCCn2nc(COc3ccccc3)cc21", "pEC50": 6.05}
{"lineNotation": "O=C(C1CC1)N1CCCn2nc(COc3ccccc3)cc21", "pEC50": 6.25}
{"lineNotation": "O=C(c1ccccc1)N1CCCn2nc(COc3ccccc3)cc21", "pEC50": 6.21}
{"lineNotation": "CC(=O)N1CCCc2nc(COc3ccccc3)oc21", "pEC50": 5.87}

Continue with the compound presented below.
Form field: reported pEC50 of "CC(=O)N1CCCn2nc(COc3ccccc3)c(F)c21"
5.49

----------
# procedureDetails: Volume of distribution at steady state in dog at 1 mg/kg, iv and 5 mg/kg, po
# Assay type: ADME, organism-based, Canis lupus familiaris
# appliedConditions: in vivo, read-out: Vdss
assayMetric: Vd (L/kg)
The figure you give is taken to be in L/kg; do not add the unit.

Form field: reported Vd of "CC(=O)N1CCCn2nc(COc3ccccc3)cc21"
1.1

----------
# systemTested: UniProtKB Q14416
# Sequence (Q14416 whole entry): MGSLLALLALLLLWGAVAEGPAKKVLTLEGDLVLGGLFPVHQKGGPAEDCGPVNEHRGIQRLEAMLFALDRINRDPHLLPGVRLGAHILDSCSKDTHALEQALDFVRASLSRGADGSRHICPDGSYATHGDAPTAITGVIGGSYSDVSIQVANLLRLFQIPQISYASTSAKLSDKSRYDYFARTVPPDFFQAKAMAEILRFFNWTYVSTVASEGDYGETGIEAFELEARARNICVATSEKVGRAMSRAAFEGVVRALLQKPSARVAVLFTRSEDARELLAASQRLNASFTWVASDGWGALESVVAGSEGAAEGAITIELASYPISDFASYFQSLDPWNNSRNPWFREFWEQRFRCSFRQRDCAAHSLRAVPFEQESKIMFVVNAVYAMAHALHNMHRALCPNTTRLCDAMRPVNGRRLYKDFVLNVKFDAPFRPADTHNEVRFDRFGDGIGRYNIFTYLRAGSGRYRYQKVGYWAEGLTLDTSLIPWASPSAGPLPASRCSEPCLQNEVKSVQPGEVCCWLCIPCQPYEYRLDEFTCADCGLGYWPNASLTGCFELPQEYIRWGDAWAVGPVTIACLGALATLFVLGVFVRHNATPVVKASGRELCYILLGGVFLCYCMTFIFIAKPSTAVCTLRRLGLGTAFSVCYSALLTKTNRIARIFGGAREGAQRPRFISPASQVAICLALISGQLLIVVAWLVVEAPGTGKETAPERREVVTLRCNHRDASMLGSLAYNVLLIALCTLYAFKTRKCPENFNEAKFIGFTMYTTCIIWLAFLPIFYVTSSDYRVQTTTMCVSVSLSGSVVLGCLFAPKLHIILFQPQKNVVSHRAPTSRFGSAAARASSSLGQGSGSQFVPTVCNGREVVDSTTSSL
# procedureDetails: Positive allosteric modulation of mGlu2 receptor (unknown origin) relative to control
pEC50: −log10 of the molar value.
assayMetric: pEC50

Form field: reported pEC50 of "CC(=O)N1CCCn2nc(COc3ccccc3)cc21"
< 5.00

----------
# systemTested: Metabotropic glutamate receptor 5 (Homo sapiens, UniProt P41594)
# procedureDetails: Positive allosteric modulation of human mGlu5 expressed in HEK293 cells assessed as calcium mobilization
# Format: functional, cell-based
# appliedConditions: read-out: EC50
assayMetric: EC50 (µM)
The figure you give is taken to be in µM; do not add the unit.

{"compound": "CC(=O)N1c2cc(COc3ccccc3)nn2CCC1c1ccccc1 (centres undefined)", "EC50 / µM": 5.37}

Form field: reported EC50 of "CC(=O)N1CCCn2nc(CN(C)c3ccccc3)cc21"
0.7
